Here the recorded TGI is given for each entry.
system: HS 578T breast; test: NCI tumour cell line growth inhibition, 48 h

Some entries whose results are on file:
Suppose we examine the compound C[C@]12CCC(=O)C=C1CC[C@@H]1[C@@H]2CC[C@]2(C)C(=O)/C(=C/c3ccncc3)C[C@@H]12 ; what TGI value has been reported?
> 100 µM

Suppose we examine the compound CCCCCCCCCCCCCCCCCc1cc(Cl)nc(Cl)n1 ; what TGI value has been reported?
> 100 µM

Suppose we examine the compound COc1cc(/C=C2/CCCc3ccccc3C2=O)cc(OC)c1OC ; what TGI value has been reported?
> 84.2 µM

More entries:
Suppose we examine the compound COc1ccc(NC(=O)COc2ccccc2)c(C(N)=O)c1 ; what TGI value has been reported?
97.1 µM

Suppose we examine the compound COc1cc(-c2nn(-c3ccc(NC(=O)Nc4ccc(Cl)c(C(F)(F)F)c4)cc3)cc2-c2ccncc2)ccc1Cl ; what TGI value has been reported?
4.96 µM

###

tested on: COLO 205 colon; test: NCI tumour cell line growth inhibition, 48 h
Here the recorded TGI is given for each entry.

Suppose we examine the molecule Clc1ccc(/C=c2\nc(-c3ccccc3)n3c2nc2ccccc23)cc1 ; what TGI value has been reported?
> 100 µM

###

Here the recorded GI50 is given for each entry.
test system: SW-620 colon; experiment: NCI tumour cell line growth inhibition, 48 h

Some entries whose results are on file:
What is its GI50 for SW-620 colon? Entry: COc1ccc(-c2c(-c3cc4c(c(OC)c3OC)OCO4)noc2N)cc1
0.235 µM

What is its GI50 for SW-620 colon? Entry: COc1ccccc1CN=C1NC(=O)/C(=C/c2ccc3ncccc3c2)S1
4.54 µM

What is its GI50 for SW-620 colon? Entry: O=C(/C=C/c1ccccc1)Nc1ncc(Cc2ccccc2)s1
0.144 µM

More entries:
What is its GI50 for SW-620 colon? Entry: CN(C)c1ccc(/C=N/NC(=O)CSc2nc3sc4c(c3c(=O)n2-c2ccccc2)CCCCC4)cc1
3.56 µM

What is its GI50 for SW-620 colon? Entry: COc1cc(/C=C/C(=O)c2ccc(F)cc2)ccc1OCCCCOc1cc2c(cc1OC)C(=O)N1CCCC1C=N2 (stereo not given)
0.481 µM

###

system: HS 578T breast; assay: NCI tumour cell line growth inhibition, 48 h; in the data active = GI50 below about 0.43 µM; inactive = the rest
Can you answer with just one of these options? label 1 for active, label 0 for inactive

Here's what some known entries look like.
Entry O=C(/C=C/c1ccccc1)Nc1ncc(Cc2ccccc2)s1 : call = ?
label 1

Entry COc1ccc(C(=O)OC2C(OC3C(O)COC(O[C@H]4C[C@H]5[C@@H]6CC=C7C[C@@H](O)CC[C@]7(C)[C@H]6CC[C@]5(C)[C@H]4[C@H](C)C(=O)CCC(C)C)C3OC(=O)C(C)C)OCC(O)C2O)cc1 (some centres undefined) : call = ?
label 1

Entry Cc1cc(C)nc(NS(=O)(=O)c2ccc(Nc3nc4nc(NCc5ccccc5)nc(-c5ccc(O)cc5)c4c(=O)[nH]3)cc2)n1 : call = ?
label 0

Entry CS(=O)(=O)OCCCCOS(C)(=O)=O : call = ?
label 0

Entry COc1ccc(NC(=O)COc2ccccc2)c(C(N)=O)c1 : call = ?
label 0

More entries:
Entry CS(=O)(=O)c1nccc(-c2c(-c3cccc(OCc4ccccc4)c3)nc3sccn23)n1 : call = ?
label 0

Entry COc1cc(/C=C/C(=O)c2ccc(F)cc2)ccc1OCCCCOc1cc2c(cc1OC)C(=O)N1CCCC1C=N2 (centres undefined) : call = ?
label 1

Entry COc1ccc2c(c1)C(=O)c1c-2n(CCCCl)c(=O)c2cc([N+](=O)[O-])ccc12 : call = ?
label 0

Entry COc1ccc(C2CC(c3ccc4ccccc4c3)=NN2/C=C2\SC(=S)N(NC(=O)Cc3ccccc3Nc3c(Cl)cccc3Cl)C2=O)cc1 (centres undefined) : call = ?
label 1

###

tested on: NCI-H522 lung; experiment: NCI tumour cell line growth inhibition, 48 h
valueType: TGI

Some entries whose results are on file:
Suppose we examine the molecule CCOC(=O)CC[C@H](NC(=O)c1ccc(CNc2nc3cc(C(F)(F)F)ccc3nc2C(=O)OCC)cc1)C(=O)OCC ; what TGI value has been reported?
29.1 µM

Suppose we examine the molecule Nc1nc(Cl)cc(NCC2(CO)CC(CCCc3ccccc3)C2)n1 (stereo not drawn) ; what TGI value has been reported?
> 100 µM

Suppose we examine the molecule Cc1nc2ccc(F)cc2c2c1CCN2c1ccccc1 ; what TGI value has been reported?
47.1 µM

Suppose we examine the molecule CCC(C#N)NCc1ccc(CNC(C#N)CC)cc1 (stereo not drawn) ; what TGI value has been reported?
> 100 µM

Suppose we examine the molecule COc1ccc(NC(=O)COc2ccccc2)c(C(N)=O)c1 ; what TGI value has been reported?
13.3 µM

More entries:
Suppose we examine the molecule CC1(C)CC(=O)c2c([nH]c(=S)c(C#N)c2-c2ccc(Br)cc2)C1 ; what TGI value has been reported?
> 100 µM

Suppose we examine the molecule SCc1ccc(-c2ccc(CS)cc2)cc1 ; what TGI value has been reported?
37.7 µM

Suppose we examine the molecule CC/C=C\C[C@H](O)C/C=C1/C(=O)C=C[C@@H]1C/C=C\CCCC(=O)OCCS(=O)(=O)c1ccccc1 ; what TGI value has been reported?
4.13 µM

###

system: UACC-62 melanoma; test: NCI tumour cell line growth inhibition, 48 h; in the data active means GI50 below about 0.43 µM; inactive means the rest
Can you answer with just one of these options? active, inactive

Here's what some known entries look like.
Entry COc1cc(/C=C/C(=O)c2ccc(F)cc2)ccc1OCCCCOc1cc2c(cc1OC)C(=O)N1CCCC1C=N2 (configuration not stated) : call = ?
inactive

Entry COc1ccc(NC(=O)COc2ccccc2)c(C(N)=O)c1 : call = ?
inactive

Entry Cc1ccc(C(=O)Nc2ccc(CN3CCN(C)CC3)c(C(F)(F)F)c2)cc1C#Cc1cnc(N)c2ccc(C#N)cc12 : call = ?
active

Entry COc1ccc(-c2c(-c3cc4c(c(OC)c3OC)OCO4)noc2N)cc1 : call = ?
inactive

Entry C=C(c1ccc(OC)c(/C=C/C(=O)c2cc(OC)c(OC)c(OC)c2)c1)c1cc(OC)c(OC)c(OC)c1 : call = ?
inactive

Entry Cc1cc(C)nc(NS(=O)(=O)c2ccc(Nc3nc4nc(NCc5ccccc5)nc(-c5ccc(O)cc5)c4c(=O)[nH]3)cc2)n1 : call = ?
inactive

More entries:
Entry C/C(=N\NC(=O)c1cccc(S(=O)(=O)N2CCN(C)CC2)c1)c1cc(Cl)ccc1O : call = ?
inactive

###

test system: RXF 393 renal; experiment: NCI tumour cell line growth inhibition, 48 h
Think of 30 µM as a floor: if TGI stands on it or above, it is Yes; beneath it, No.

Here's what some known entries look like.
Could you please find out whether COc1ccc(C2CC(c3ccc4ccccc4c3)=NN2/C=C2\SC(=S)N(NC(=O)Cc3ccccc3Nc3c(Cl)cccc3Cl)C2=O)cc1 (stereo not given) has TGI that meets 30 µM or exceeds it?
No

Could you please find out whether Cc1cc(N(CCC#N)CCC#N)ccc1/C=C(\NC(=O)/C=C/c1ccccc1)NC(=O)Nc1ccccc1C has TGI that meets 30 µM or exceeds it?
Yes

Could you please find out whether CCOC(=O)CCC(NC(=O)C(CCC(=O)OCC)NC(=O)C(Cc1ccc([N+](=O)[O-])cc1)NC(C)=O)C(=O)NNC(=O)OC(C)(C)C (stereo not given) has TGI that meets 30 µM or exceeds it?
Yes

Could you please find out whether COc1ccc(Nc2[nH]n(C3=Nc4ccccc4Sc4ccccc43)c(=O)c2C#N)cc1 has TGI that meets 30 µM or exceeds it?
No

Could you please find out whether O=C1C2c3[nH]c4ccccc4c3C3CCC(c4ccccc4)CC3C2C(=O)N1c1ccccc1 (stereo not given) has TGI that meets 30 µM or exceeds it?
Yes

Could you please find out whether Cc1nc2ccccc2c(=O)n1Nc1ccc(C(=O)O)cc1 has TGI that meets 30 µM or exceeds it?
Yes

Could you please find out whether O=C1CCN=C(NC(=O)C(F)(F)F)N1CCc1c[nH]c2ccccc12 has TGI that meets 30 µM or exceeds it?
Yes

Could you please find out whether COc1ccc(NC(=O)COc2ccccc2)c(C(N)=O)c1 has TGI that meets 30 µM or exceeds it?
No

Could you please find out whether Cn1cc(S(=O)(=O)NC(=O)Nc2ccc(Cl)cc2)c(=O)c2ccc(Cl)cc21 has TGI that meets 30 µM or exceeds it?
Yes

Could you please find out whether Clc1cc(Cl)cc(C2SCc3nc4ccccc4n32)c1 (stereo not given) has TGI that meets 30 µM or exceeds it?
No

More entries:
Could you please find out whether C/C(=N\NC(=O)C[n+]1ccccc1)c1sc(-c2nc(C)c(/C(C)=N/NC(=O)C[n+]3ccccc3)s2)nc1C has TGI that meets 30 µM or exceeds it?
Yes

Could you please find out whether CCCCCCCCCCCCCCCCC(=O)NCC(=O)NCC(=O)NC(Cc1ccccc1)C(=O)Oc1ccc([N+](=O)[O-])cc1 (stereo not given) has TGI that meets 30 µM or exceeds it?
Yes

Could you please find out whether Nc1nc(Cl)cc(NCC2(CO)CC(CCCc3ccccc3)C2)n1 (stereo not given) has TGI that meets 30 µM or exceeds it?
Yes

Could you please find out whether CCN(CC)c1ccc(CNc2cc(C)nc3ccc(OC)cc23)cc1 has TGI that meets 30 µM or exceeds it?
No

Could you please find out whether Cc1cccc(C)c1NC(=O)C(=O)C(c1ccccc1Cl)S(=O)(=O)Cc1ccccc1Cl (stereo not given) has TGI that meets 30 µM or exceeds it?
Yes

Could you please find out whether COc1ccc2c3c(ccc2c1)NC(C(=O)O)CC3 (stereo not given) has TGI that meets 30 µM or exceeds it?
Yes

Could you please find out whether COc1ccc(C(=O)NNC(=O)c2nsc3ccccc23)cc1 has TGI that meets 30 µM or exceeds it?
Yes
